Tested on: T-3 receptor
ASSAY NOTES: biological assay, such as the method of Westerfield et al. (T-3 receptor antagonism)
CONDITION PARAMETERS: "can be shown" by a biological assay such as Westerfield et al.; no data given
Structures can show the parent of a compound that is named as a salt.
MEASUREMENT NAME: T-3 receptor antagonism

These recorded examples may help you get a feel for the data.
- MOLECULE: "Cc1oc2ccccc2c1Cc1cc(I)c(OCC(=O)O)c(I)c1"
  REPORTED: "T-3 receptor antagonists"
- MOLECULE: "CN(C)CCOc1c(I)cc(C(=O)c2ccc(O)c(I)c2)cc1I [(024), hydrochloride]"
  REPORTED: "T-3 receptor antagonists"
- MOLECULE: "CCCCc1oc2ccccc2c1C(=O)c1cc(I)c(OCC(=O)O)c(I)c1"
  REPORTED: "T-3 receptor antagonists"
- MOLECULE: "CCCCc1oc2ccccc2c1C(O)c1cc(I)c(OCCN(CC)CC)c(I)c1 (centres unmarked) [(001), hydrochloride]"
  REPORTED: "T-3 receptor antagonists"
- MOLECULE: "CCCCc1oc2ccccc2c1C(=O)c1ccc(O)c(I)c1"
  REPORTED: "T-3 receptor antagonists"
- MOLECULE: "Oc1ccc(Cc2cc(I)c(O)c(I)c2)cc1I"
  REPORTED: "T-3 receptor antagonists"
- MOLECULE: "Cc1oc2ccccc2c1C(=O)c1cc(I)c(O)c(I)c1"
  REPORTED: "T-3 receptor antagonists"

**Query** Give the value of T-3 receptor antagonism reported for the following: CCN(CC)CCOc1c(I)cc(C(=O)c2c(C)oc3ccccc23)cc1I [(003), hydrochloride]
**Result** T-3 receptor antagonists

====

MEASURED TARGET: Human thyroid hormone receptor β1 (hThR β1) (Homo sapiens)
Sequence (P10828 whole entry): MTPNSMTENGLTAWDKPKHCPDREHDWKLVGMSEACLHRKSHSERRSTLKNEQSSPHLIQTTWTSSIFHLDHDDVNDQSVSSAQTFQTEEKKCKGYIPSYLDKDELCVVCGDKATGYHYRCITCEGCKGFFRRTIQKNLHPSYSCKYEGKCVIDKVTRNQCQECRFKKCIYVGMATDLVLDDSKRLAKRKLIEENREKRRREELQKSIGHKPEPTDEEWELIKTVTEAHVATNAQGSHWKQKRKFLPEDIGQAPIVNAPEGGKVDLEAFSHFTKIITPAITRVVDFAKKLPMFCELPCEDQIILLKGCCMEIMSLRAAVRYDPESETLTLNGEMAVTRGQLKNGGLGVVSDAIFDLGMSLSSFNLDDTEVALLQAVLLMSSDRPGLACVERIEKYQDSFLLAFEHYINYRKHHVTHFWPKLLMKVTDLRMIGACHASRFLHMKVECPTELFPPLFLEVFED
ASSAY NOTES: Binding experiments: displacement of 125I-T-3 from hThR β1
CONDITION PARAMETERS: [hThRβ]=5.0×10^-11 M; [125I-T3]=2.0×10^-10 M; pH 7,5; incubated over night (16-20 hours); not above +4° C
Where a name gives a salt, the structure may show the parent alone.
I'd be grateful if you could share measured pIC50 for these entries.
One number for each entry, as −log10 of the molar value.

Worked cases, pIC50 given:
- COMPOUND: "CN(C)CCOc1c(I)cc(C(=O)c2ccc(O)c(I)c2)cc1I [(024), hydrochloride]"
  pIC50: 4.96
- COMPOUND: "CCCCc1oc2ccccc2c1C(O)c1cc(I)c(OCCN(CC)CC)c(I)c1 (centres unmarked) [(001), hydrochloride]"
  pIC50: 5.44
- COMPOUND: "Cc1oc2ccccc2c1C(=O)c1cc(I)c(O)c(I)c1 [(011)]"
  pIC50: 5.60
- COMPOUND: "Oc1ccc(Cc2cc(I)c(O)c(I)c2)cc1I [(032)]"
  pIC50: 6.38
- COMPOUND: "CCCCc1oc2ccccc2c1C(=O)c1ccc(O)c(I)c1 [(029)]"
  pIC50: 5.49
- COMPOUND: "Cc1oc2ccccc2c1Cc1cc(I)c(OCC(=O)O)c(I)c1 [(015)]"
  pIC50: 5.10

Below is a list of compounds. For each, state its recorded pIC50.
1. CCN(CC)CCOc1c(I)cc(C(=O)c2c(C)oc3ccccc23)cc1I [(003), hydrochloride]
2. CCCCc1oc2ccccc2c1C(=O)c1cc(I)c(OCC(=O)O)c(I)c1 [(005)]

**Result**
5.00
5.40
